Tested on: MG63 (osteosarcoma cell line)
Assay: MTT cellular viability/proliferation, cancer cell lines
Assay type: cell-based, human
Settings: MG63, MTT assay
Reported pIC50 values for a set of compounds
pIC50 is a log-scale quantity: -log10 of the concentration expressed in molar.

# annotated cases, reported pIC50 shown
CC1(C)S[C@@H]2[C@H](NC(=O)[C@H](N)c3ccccc3)C(=O)N2[C@H]1C(=O)[O-].C[N+](C)(C)CCO [[Cholin][Amp]]	7.77
CC1(C)S[C@@H]2[C@H](NC(=O)[C@H](N)c3ccccc3)C(=O)N2[C@H]1C(=O)[O-].C[n+]1ccn(CCO)c1 [[C2OHMIM][Amp]]	6.13
CC1(C)S[C@@H]2[C@H](NC(=O)[C@H](N)c3ccccc3)C(=O)N2[C@H]1C(=O)[O-].CCCCCCCCCCCCCCCC[n+]1ccccc1 [[C16Pyr][Amp]]	7.96

## Task Could you share which pIC50 value was measured for CC1(C)S[C@@H]2[C@H](NC(=O)[C@H](N)c3ccccc3)C(=O)N2[C@H]1C(=O)[O-].CC[N+](CC)(CC)CC [[TEA][Amp], tetraethyl ammonium salt of Ampicillin] ?
## Result 7.52

* * *

System: S. epidermis
Assay: Minimum inhibitory concentration, ampicillin sensitive strains
Format: cell-based, Staphylococcus epidermidis
Details: S. epidermis, Gram-positive, ampicillin sensitive
quantity-measured: Minimum inhibitory concentrations (mM)
Give a bare numeral; the unit mM is implied.

# annotated cases, reported Minimum inhibitory concentrations shown
C[n+]1ccn(CCO)c1.[Cl-] [[C2OHMIM][Cl]]	5
CCCCCCCCCCCCCCCC[n+]1ccccc1.[Cl-] [[C16Pyr][Cl]]	2.5
CC1(C)S[C@@H]2[C@H](NC(=O)[C@H](N)c3ccccc3)C(=O)N2[C@H]1C(=O)[O-].C[n+]1ccn(CCO)c1 [[C2OHMIM][Amp]]	2.5
CCCCCCCCCCCCCC[P+](CCCCCC)(CCCCCC)CCCCCC.[Cl-] [[P6,6,6,14][Cl]]	2.5
CC1(C)S[C@@H]2[C@H](NC(=O)[C@H](N)c3ccccc3)C(=O)N2[C@H]1C(=O)[O-].[Na+] [[Na][Amp]] [sodium ampicillin]	0.05

## Task Could you share which Minimum inhibitory concentrations value was measured for CC1(C)S[C@@H]2[C@H](NC(=O)[C@H](N)c3ccccc3)C(=O)N2[C@H]1C(=O)[O-].CCCCCCCCCCCCCCCC[n+]1ccccc1 [[C16Pyr][Amp]] ?
## Result 0.005

## Task Quick one: CCn1cc[n+](C)c1.[Br-] [[EMIM][Br]]
## Result 5

* * *

Test system: gingival fibroblasts (GF)
Assay: MTT cellular viability/proliferation, primary human cells
Assay type: cell-based
Conditions: Homo sapiens, Fibroblast, MTT assay
quantity-measured: pIC50
pIC50 is a log-scale quantity: -log10 of the concentration expressed in molar.

## Task Could you share which pIC50 value was measured for CC1(C)S[C@@H]2[C@H](NC(=O)[C@H](N)c3ccccc3)C(=O)N2[C@H]1C(=O)O [[P6,6,6,14][Amp]] ?
## Result 6.76

* * *

System: HepG2 (hepatocellular liver carcinoma cell)
Assay: MTT cellular viability/proliferation, cancer cell lines
Format: cell-based, human
Conditions: Homo sapiens; HepG2, MTT assay
quantity-measured: IC50 (µM)
Give a bare numeral; the unit µM is implied.

## Task Could you share which IC50 value was measured for CC1(C)S[C@@H]2[C@H](NC(=O)[C@H](N)c3ccccc3)C(=O)N2[C@H]1C(=O)O [[P6,6,6,14][Amp]] ?
## Result 0.322

* * *

Test system: S. epidermis
Test: Minimum inhibitory concentration, ampicillin sensitive strains
Type: cell-based, Staphylococcus epidermidis
Details: S. epidermis, Gram-positive, ampicillin sensitive
Procedure: Each one of the 24 combinations of the ionic liquids were tested with following 9 bacteria: • Escherichia coli ATCC25922 • Staphylococcus aureus ATCC25923 • Klebsiella pneumonia • Staphylococcus epidermidis • Enterococcus fecalis • E. coli Tem CTXM9 • E. coli CTXM2 • E. coli AmpCMox2 • Saccharomyces cerevisiae PYCC 4072 These bacteria were tested in Vitek2 systems from bioMérieux. Bacteria were grown on Trypticase soy agar for 24 hours at 37° C. prior to each test. […]
quantity-measured: Minimum inhibitory concentrations

# annotated cases, reported Minimum inhibitory concentrations shown
CC1(C)S[C@@H]2[C@H](NC(=O)[C@H](N)c3ccccc3)C(=O)N2[C@H]1C(=O)[O-].CC[N+](CC)(CC)CC [[TEA][Amp], tetraethyl ammonium salt of Ampicillin]	>5 mM
C[N+](C)(C)CCO.[Cl-] [[Cholin][Cl]]	>5 mM

## Task Could you share which Minimum inhibitory concentrations value was measured for CC1(C)S[C@@H]2[C@H](NC(=O)[C@H](N)c3ccccc3)C(=O)N2[C@H]1C(=O)[O-].C[N+](C)(C)CCO [[Cholin][Amp]] ?
## Result >5 mM

## Task Quick one: CC1(C)S[C@@H]2[C@H](NC(=O)[C@H](N)c3ccccc3)C(=O)N2[C@H]1C(=O)[O-].CC[n+]1ccn(C)c1 [[EMIM][Amp]]
## Result >5 mM
